assay_system: T1, human Claudin 18.2 (CLDN18.2) (human, UniProt P56856-2 1-261)
T1 construct: whole, on cells; recombinantly expressed on CHO, HEK293, NCI-N87, NUGC4 or PANC-1 cells; also called CHO-CLDN18.2
experiment_summary: FACS on CHO-CLDN18.2 cells
quantity: EC50 (nM)
Your answer should be a plain number; it is taken to be in nM.

For orientation, consider the following solved cases.
binder	quantity	measurement_unit	recorded_value
364D1A7-VL-S32V (antibody, human IgG1, kappa, V domains shown, chimeric human IgG1, PTM site removed; also called 364D1A7-VL-32V) VH: DVQLVESGGGLVQPGGSRKLSCAASGFTFSSFGMHWVRQAPEKGLEWVAYISSGSGSIYYADTVKGRFTLSRDNPKNTLFLQMTSLRSEDTAIYYCATSYYYGNALEYWGQGTSVTVSS VL: DVVLTQSPSSLTVTEGEKVSMSCKSSQSLFNVGNQKNYLTWYQQKPGQTPTLLIYWASTRKSGVPDRFTGSGSGTDFTLTINTVQAEDLAVYYCQNVYSYPLTFGAGTKLDLKR	EC50	nM	3.87
364D1A7-H3L1 (antibody, V domains shown, humanized IgG; constant regions not specified) VH: EVQLVESGGGLVQPGGSLRLSCAASGFTFSSFGMHWVRQAPGKGLEWVAYISSGSGSIYYADTVKGRFTLSRDNPKNSLYLQMNSLRAEDTAVYYCATSYYYGNALEYWGQGTTVTVSS VL: DIVMTQSPDSLAVSLGERATINCKSSQSLFNVGNQKNYLTWYQQKPGQPPKLLIYWASTRKSGVPDRFSGSGSGTDFTLTISSLQAEDVAVYYCQNVYSYPLTFGGGTKVEIK	EC50	nM	4.22
364D1A7-H4L2 (antibody, V domains shown, humanized IgG; constant regions not specified) VH: DVQLVESGGGLVQPGGSLRLSCAASGFTFSSFGMHWVRQAPGKGLEWVAYISSGSGSIYYADTVKGRFTLSRDNPKNTLYLQMNSLRAEDTAVYYCATSYYYGNALEYWGQGTTVTVSS VL: DIVLTQSPDSLAVSLGERATINCKSSQSLFNVGNQKNYLTWYQQKPGQTPKLLIYWASTRKSGVPDRFSGSGSGTDFTLTISSLQAEDVAVYYCQNVYSYPLTFGGGTKVEIK	EC50	nM	4.51
364D1A7-H1L5 (antibody, V domains shown, humanized IgG; constant regions not specified) VH: EVQLVESGGGLVQPGGSLRLSCAASGFTFSSFGMHWVRQAPGKGLEWVSYISSGSGSIYYADTVKGRFTISRDNAKNSLYLQMNSLRAEDTAVYYCATSYYYGNALEYWGQGTTVTVSS VL: DVVLTQSPDSLAVSLGERATISCKSSQSLFNVGNQKNYLTWYQQKPGQTPTLLIYWASTRKSGVPDRFTGSGSGTDFTLTISSLQAEDVAVYYCQNVYSYPLTFGAGTKVEIK	EC50	nM	3.96

Next binder, EC50 to be filled in.
Given 364D1A7-H1L2 (antibody, V domains shown, humanized IgG; constant regions not specified) VH: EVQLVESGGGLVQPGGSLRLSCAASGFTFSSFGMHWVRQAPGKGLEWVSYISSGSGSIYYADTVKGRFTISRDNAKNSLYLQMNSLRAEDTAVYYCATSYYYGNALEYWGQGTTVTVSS VL: DIVLTQSPDSLAVSLGERATINCKSSQSLFNVGNQKNYLTWYQQKPGQTPKLLIYWASTRKSGVPDRFSGSGSGTDFTLTISSLQAEDVAVYYCQNVYSYPLTFGGGTKVEIK , state its recorded EC50.
6.9
